Value source: patent US20240009191A1

tested on: AT1R-CXCR2 heteromer (Homo sapiens, UniProt P25025+P30556)
test name: BRET trafficking of CXCR2/Rluc8 (Venus/Kras, Rab5, Rab8) with HA-AT1R, pre-treatment with vehicle or antagonists/inverse agonists
Type: cell-based
reported conditions: 100 nM AngII only, 50 minutes after pre-treatment (10 μM); FIG. 18B, 18D
experimental endpoint: effect of AngII on CXCR2/Rluc8-Venus/Rab8 BRET

*Q* State the recorded effect of AngII on CXCR2/Rluc8-Venus/Rab8 BRET for this entry: `CC[C@@H](Nc1c(Nc2cccc(C(=O)N(C)C)c2O)c(=O)c1=O)c1ccc(C)o1`
*A* did not alter

*Q* Quick one: effect of AngII on CXCR2/Rluc8-Venus/Rab8 BRET of `O=C(Nc1ccc([N+](=O)[O-])cc1O)Nc1ccccc1Br` ?
*A* did not alter

*Q* So what does the record say about effect of AngII on CXCR2/Rluc8-Venus/Rab8 BRET for `CCCCC1=NC2(CCCC2)C(=O)N1Cc1ccc(-c2ccccc2-c2nnn[nH]2)cc1` ?
*A* completely inhibited

*Q* Consider the molecule shown here: `CCOc1nc2cccc(C(=O)O)c2n1Cc1ccc(-c2ccccc2-c2nc(=O)o[nH]2)cc1` What is its recorded effect of AngII on CXCR2/Rluc8-Venus/Rab8 BRET?
*A* completely inhibited

Now examine the next entry.
*Q* Data request, read-out effect of AngII on CXCR2/Rluc8-Venus/Rab8 BRET, for `CCCCC(=O)N(Cc1ccc(-c2ccccc2-c2nnn[nH]2)cc1)[C@H](C(=O)O)C(C)C`
*A* completely inhibited

* * *

tested on: AT1R-CXCR2 heteromer (Homo sapiens, UniProt P25025+P30556)
test name: BRET trafficking of AT1R/Rluc8 (Venus/Kras, Rab5) with unlabelled CXCR2, pre-treatment with vehicle or antagonists/inverse agonists
Assay type: cell-based
reported conditions: 10 nM CXCL8 and 100 nM AngII, 50 minutes after pre-treatment (10 μM); FIG. 20B-20F
experimental endpoint: effect of both CXCL8 and AngII combined on AT1R/Rluc8-Venus/Rab5 BRET

*Q* Look up effect of both CXCL8 and AngII combined on AT1R/Rluc8-Venus/Rab5 BRET with AT1R-CXCR2 heteromer (Homo sapiens, UniProt P25025+P30556) for this compound: `CCOc1nc2cccc(C(=O)O)c2n1Cc1ccc(-c2ccccc2-c2nc(=O)o[nH]2)cc1`
*A* completely inhibited

*Q* What is its effect of both CXCL8 and AngII combined on AT1R/Rluc8-Venus/Rab5 BRET for AT1R-CXCR2 heteromer (Homo sapiens, UniProt P25025+P30556)? Entry: `CCCCC1=NC2(CCCC2)C(=O)N1Cc1ccc(-c2ccccc2-c2nnn[nH]2)cc1`
*A* completely inhibited

*Q* Form field: effect of both CXCL8 and AngII combined on AT1R/Rluc8-Venus/Rab5 BRET recorded for `CCCCC(=O)N(Cc1ccc(-c2ccccc2-c2nnn[nH]2)cc1)[C@H](C(=O)O)C(C)C` with AT1R-CXCR2 heteromer (Homo sapiens, UniProt P25025+P30556) (enter value)
*A* completely inhibited

* * *

tested on: AT1R-CXCR2 heteromer (Homo sapiens, UniProt P25025+P30556)
Sequence (P30556 1-359): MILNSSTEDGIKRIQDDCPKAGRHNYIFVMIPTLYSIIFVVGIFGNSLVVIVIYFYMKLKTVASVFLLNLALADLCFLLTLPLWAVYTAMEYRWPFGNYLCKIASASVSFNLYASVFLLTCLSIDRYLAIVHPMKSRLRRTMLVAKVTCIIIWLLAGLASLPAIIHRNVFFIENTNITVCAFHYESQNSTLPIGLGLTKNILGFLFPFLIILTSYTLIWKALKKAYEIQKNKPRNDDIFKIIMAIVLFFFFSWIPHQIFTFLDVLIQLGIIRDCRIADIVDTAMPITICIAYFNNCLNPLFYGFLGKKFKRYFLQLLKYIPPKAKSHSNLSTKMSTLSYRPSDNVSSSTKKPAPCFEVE
Sequence (P25025 1-360): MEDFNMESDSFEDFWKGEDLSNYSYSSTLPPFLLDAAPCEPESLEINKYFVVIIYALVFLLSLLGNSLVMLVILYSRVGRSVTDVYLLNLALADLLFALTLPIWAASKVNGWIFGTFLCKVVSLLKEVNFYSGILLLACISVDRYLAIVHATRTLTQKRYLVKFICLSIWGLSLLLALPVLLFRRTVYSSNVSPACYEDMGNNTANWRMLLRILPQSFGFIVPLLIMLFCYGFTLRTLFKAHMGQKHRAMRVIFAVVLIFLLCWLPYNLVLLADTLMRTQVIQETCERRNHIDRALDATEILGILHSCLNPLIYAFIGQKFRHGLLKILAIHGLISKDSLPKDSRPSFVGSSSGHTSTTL
test name: BRET trafficking of AT1R/Rluc8 (Venus/Kras, Rab5) with unlabelled CXCR2, pre-treatment with vehicle or antagonists/inverse agonists
Assay type: cell-based
reported conditions: 10 nM CXCL8 and 100 nM AngII, 50 minutes after pre-treatment (10 μM); FIG. 19B-19F
experimental endpoint: effect of both CXCL8 and AngII combined on AT1R/Rluc8-Venus/Kras BRET

*Q* Dear colleague, I am looking for the recorded effect of both CXCL8 and AngII combined on AT1R/Rluc8-Venus/Kras BRET of the following compound: `CCCCC1=NC2(CCCC2)C(=O)N1Cc1ccc(-c2ccccc2-c2nnn[nH]2)cc1`
*A* completely inhibited

*Q* Could you share which effect of both CXCL8 and AngII combined on AT1R/Rluc8-Venus/Kras BRET value was measured for `CCCCC(=O)N(Cc1ccc(-c2ccccc2-c2nnn[nH]2)cc1)[C@H](C(=O)O)C(C)C` ?
*A* completely inhibited

*Q* Query (compound): `CCOc1nc2cccc(C(=O)O)c2n1Cc1ccc(-c2ccccc2-c2nc(=O)o[nH]2)cc1` ; field requested: effect of both CXCL8 and AngII combined on AT1R/Rluc8-Venus/Kras BRET
*A* completely inhibited

* * *

tested on: AT1R-CXCR2 heteromer (Homo sapiens, UniProt P25025+P30556)
Sequence (P25025 1-360): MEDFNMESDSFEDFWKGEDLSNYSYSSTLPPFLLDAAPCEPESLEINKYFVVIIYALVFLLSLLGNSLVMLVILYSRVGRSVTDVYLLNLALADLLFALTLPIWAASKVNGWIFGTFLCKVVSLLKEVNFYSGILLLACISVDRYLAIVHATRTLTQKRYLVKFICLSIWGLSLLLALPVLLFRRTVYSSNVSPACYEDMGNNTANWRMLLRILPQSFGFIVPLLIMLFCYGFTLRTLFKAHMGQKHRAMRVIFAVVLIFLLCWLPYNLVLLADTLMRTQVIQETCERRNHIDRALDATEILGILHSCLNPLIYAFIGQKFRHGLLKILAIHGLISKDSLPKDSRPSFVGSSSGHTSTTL
Sequence (P30556 1-359): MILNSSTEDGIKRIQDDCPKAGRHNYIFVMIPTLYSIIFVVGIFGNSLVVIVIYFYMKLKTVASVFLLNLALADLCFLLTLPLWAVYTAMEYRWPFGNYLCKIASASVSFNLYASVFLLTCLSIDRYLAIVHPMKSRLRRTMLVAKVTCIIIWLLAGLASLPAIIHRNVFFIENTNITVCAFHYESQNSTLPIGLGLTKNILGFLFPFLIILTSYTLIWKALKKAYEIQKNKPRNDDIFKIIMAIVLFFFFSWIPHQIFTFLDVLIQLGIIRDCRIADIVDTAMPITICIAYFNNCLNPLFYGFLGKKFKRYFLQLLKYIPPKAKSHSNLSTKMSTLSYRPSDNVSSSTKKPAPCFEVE
test name: BRET Gi coupling, CXCR2/Rluc8, Venus/mGsi and HA-AT1R, pre-treatment with antagonists/inverse agonists
Type: cell-based
reported conditions: 100 nM AngII, 50 minutes after pre-treatment with antagonists/inverse agonists (10 μM); FIGS. 6-15
experimental endpoint: effect of AngII only on CXCR2/Rluc8-Venus/mGsi BRET

Previously resolved entries follow.
*Q* Suppose we examine the compound CC[C@@H](Nc1c(Nc2cccc(C(=O)N(C)C)c2O)c(=O)c1=O)c1ccc(C)o1 [navarixin] ; what effect of AngII only on CXCR2/Rluc8-Venus/mGsi BRET value has been reported?
*A* not being altered

*Q* Entry CCOc1nc2cccc(C(=O)O)c2n1Cc1ccc(-c2ccccc2-c2nc(=O)o[nH]2)cc1 [azilsartan] : reported effect of AngII only on CXCR2/Rluc8-Venus/mGsi BRET = ?
*A* completely inhibited

*Q* Tell me the measured effect of AngII only on CXCR2/Rluc8-Venus/mGsi BRET of CCCc1nc2c(C)cc(-c3nc4ccccc4n3C)cc2n1Cc1ccc(-c2ccccc2C(=O)O)cc1 [telmisartan] , please.
*A* completely inhibited

*Q* Endpoint output: effect of AngII only on CXCR2/Rluc8-Venus/mGsi BRET of CCCCC1=NC2(CCCC2)C(=O)N1Cc1ccc(-c2ccccc2-c2nnn[nH]2)cc1 [irbesartan] . Value?
*A* completely inhibited

*Q* Would you mind telling me what effect of AngII only on CXCR2/Rluc8-Venus/mGsi BRET value was observed for CCCCc1nc(Cl)c(CO)n1Cc1ccc(-c2ccccc2-c2nn[nH]n2)cc1 [losartan] ?
*A* completely inhibited

*Q* Requested field: effect of AngII only on CXCR2/Rluc8-Venus/mGsi BRET. Item: O=C(Nc1ccc([N+](=O)[O-])cc1O)Nc1ccccc1Br [SB225002]
*A* not being altered

*Q* Recorded effect of AngII only on CXCR2/Rluc8-Venus/mGsi BRET for Cc1c(F)cccc1NC(=O)Nc1ccc(Cl)c(S(=O)(=O)[C@H]2CCCNC2)c1O [danirixin] , please?
*A* not being altered

*Q* Report effect of AngII only on CXCR2/Rluc8-Venus/mGsi BRET for CCCCC(=O)N(Cc1ccc(-c2ccccc2-c2nnn[nH]2)cc1)[C@H](C(=O)O)C(C)C [valsartan] please.
*A* completely inhibited

---
*Q* For the compound shown here, CCCCc1ncc(/C=C(\Cc2cccs2)C(=O)O)n1Cc1ccc(C(=O)O)cc1 [eprosartan] , give the reported effect of AngII only on CXCR2/Rluc8-Venus/mGsi BRET.
*A* completely inhibited

*Q* What value of effect of AngII only on CXCR2/Rluc8-Venus/mGsi BRET has been recorded for this entry: CCOc1nc2cccc(C(=O)O)c2n1Cc1ccc(-c2ccccc2-c2nnn[nH]2)cc1 [candesartan]
*A* completely inhibited
